Internalization Score for assorted binders
- ASSAY SYSTEM: T1, APJ-eGFP fusion protein on CHO-M1 cells (UniProt P35414 1-380)
- T1 sequence (looked up): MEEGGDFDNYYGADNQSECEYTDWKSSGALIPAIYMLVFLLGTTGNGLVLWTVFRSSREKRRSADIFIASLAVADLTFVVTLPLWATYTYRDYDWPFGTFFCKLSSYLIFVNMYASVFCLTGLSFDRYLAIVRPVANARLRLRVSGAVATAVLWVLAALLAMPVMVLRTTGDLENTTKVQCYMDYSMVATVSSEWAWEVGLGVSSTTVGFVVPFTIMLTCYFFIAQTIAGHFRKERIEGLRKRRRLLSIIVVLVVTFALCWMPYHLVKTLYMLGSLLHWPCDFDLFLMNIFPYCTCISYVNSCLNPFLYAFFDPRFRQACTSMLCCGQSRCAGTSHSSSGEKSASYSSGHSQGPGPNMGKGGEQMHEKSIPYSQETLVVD
- METHOD DESCRIPTION: cell-based or functional assay
OBSERVABLE: Internalization Score

| BINDER | OBSERVABLE | READOUT VALUE |
| --- | --- | --- |
| APL-G (Fc fusion) DKTHTSPPSPAPEAAGGPSVFLFPPKPKDTLMISRTPEVTCVVVDVSHEDPEVKFNWYVDGVEVHNAKTKPREEQYNSTYRVVSVLTVLHQDWLNGKEYKCKVSNKALPAPIEKTISKAKGQPREPQVYTLPPSREEMTKNQVNLTCLVKGFYPSDIAVEWESNGQPENNYKTTPPVLDSDGSFFLNSTLTVDKSRWQQGNVFSCSVMHEALHNHYTQKSLSLSPGKGGGGSGGGGSGGGGSQRPRLSHKGPMAF | Internalization Score | 3 |
| ELA-B (Fc fusion) DKTHTSPPSPAPEAAGGPSVFLFPPKPKDTLMISRTPEVTCVVVDVSHEDPEVKFNWYVDGVEVHNAKTKPREEQYNSTYRVVSVLTVLHQDWLNGKEYKCKVSNKALPAPIEKTISKAKGQPREPQVYTLPPSREEMTKNQVNLTCLVKGFYPSDIAVEWESNGQPENNYKTTPPVLDSDGSFFLNSTLTVDKSRWQQGNVFSCSVMHEALHNHYTQKSLSLSPGKGGGGSGGGGSGGGGSKLNKHNCLQRRCMPLHSRVPFP | Internalization Score | 3 |
| APL-F (Fc fusion) DKTHTSPPSPAPEAAGGPSVFLFPPKPKDTLMISRTPEVTCVVVDVSHEDPEVKFNWYVDGVEVHNAKTKPREEQYNSTYRVVSVLTVLHQDWLNGKEYKCKVSNKALPAPIEKTISKAKGQPREPQVYTLPPSREEMTKNQVNLTCLVKGFYPSDIAVEWESNGQPENNYKTTPPVLDSDGSFFLNSTLTVDKSRWQQGNVFSCSVMHEALHNHYTQKSLSLSPGKGGGGSGGGGSGGGGSQRPRLSHKGPAPY | Internalization Score | 1 |
| ELA-E (Fc fusion) DKTHTSPPSPAPEAAGGPSVFLFPPKPKDTLMISRTPEVTCVVVDVSHEDPEVKFNWYVDGVEVHNAKTKPREEQYNSTYRVVSVLTVLHQDWLNGKEYKCKVSNKALPAPIEKTISKAKGQPREPQVYTLPPSREEMTKNQVNLTCLVKGFYPSDIAVEWESNGQPENNYKTTPPVLDSDGSFFLNSTLTVDKSRWQQGNVFSCSVMHEALHNHYTQKSLSLSPGKGGGGSGGGGSGGGGSKLRKHNCLQRRCMPLHRRVPFP | Internalization Score | 0 |
